Hey, just so you know, these numbers are from the supplement of paper PMC8728848.

# SYSTEM: GlcNAc(b1-3)Gal(b1-4)GlcNAc(b1-3)Gal(b1-4)GlcNAc(b1-3)Gal(b1-4)GlcNAc(b1-3)Gal(b1-4)GlcNAc(b1-2)Man(a1-3)[GlcNAc(b1-3)Gal(b1-4)GlcNAc(b1-3)Gal(b1-4)GlcNAc(b1-3)Gal(b1-4)GlcNAc(b1-3)Gal(b1-4)GlcNAc(b1-2)Man(a1-6)]Man(b1-4)GlcNAc(b1-4)[Fuc(a1-6)]GlcNAc
# PROTOCOL DESCRIPTION: glycan array binding signal (z-score within array); higher = stronger binding
# TEST CONDITIONS: glycan notation: IUPAC condensed, linker removed
This is one part of a sample in which the strongest signals are shown more often than they occur.
The following binders are shown together with reported glycan array binding signal (z-score) values.
RECORDED METRIC: glycan array binding signal (z-score)

BINDER | RECORDED MEASUREMENT
Als3-2 (Candida albicans) (protein) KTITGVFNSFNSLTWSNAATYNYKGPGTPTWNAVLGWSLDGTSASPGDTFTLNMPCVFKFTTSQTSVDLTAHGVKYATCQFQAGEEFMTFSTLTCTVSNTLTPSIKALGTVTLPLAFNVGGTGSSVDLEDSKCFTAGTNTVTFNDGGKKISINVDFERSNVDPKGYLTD | 3.13
EfCBM33A (Enterococcus faecalis), Q838S1 (protein) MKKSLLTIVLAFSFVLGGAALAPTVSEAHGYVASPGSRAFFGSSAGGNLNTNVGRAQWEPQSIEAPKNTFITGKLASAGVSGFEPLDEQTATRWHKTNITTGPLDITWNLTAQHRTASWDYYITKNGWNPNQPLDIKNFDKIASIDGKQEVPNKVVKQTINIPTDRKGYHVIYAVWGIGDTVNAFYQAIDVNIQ | 4.24
CBM13 2a (Mycobacterium tuberculosum), P64849 (protein) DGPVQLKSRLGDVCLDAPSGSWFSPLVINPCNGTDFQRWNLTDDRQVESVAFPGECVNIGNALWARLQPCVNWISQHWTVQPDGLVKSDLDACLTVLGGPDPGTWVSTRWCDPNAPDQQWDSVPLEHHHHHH | -0.169
CBM40 CPF071 (Clostridium perfringens) (protein) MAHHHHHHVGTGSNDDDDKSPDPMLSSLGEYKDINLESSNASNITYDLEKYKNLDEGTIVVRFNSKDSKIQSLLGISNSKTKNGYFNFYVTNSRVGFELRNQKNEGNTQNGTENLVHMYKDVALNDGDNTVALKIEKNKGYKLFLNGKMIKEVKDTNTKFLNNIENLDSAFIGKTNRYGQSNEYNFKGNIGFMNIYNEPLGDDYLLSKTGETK | -0.108
